Values compiled from ChEMBL document CHEMBL1770116.

Would you mind telling me the reported inhibition of each entry?
- studySystem: Protein kinase C (PKC) (Homo sapiens) (UniProt O94806+P41743+P17252+P05129+Q05655+P05771+Q05513+Q02156+P24723+Q15139+Q04759)
- runDescription: Inhibition of PKC activation in PMA-treated human fibroblasts assessed as inhibition of translocation to plasma membrane at 2 uM pretreated for 1 hr followed by 15 mins challenged with PMA by Western blot/densitometric analysis
Output spec: scalar in %, unitless text.

Measured inhibition of CCCCCC(=O)OC[C@H]1O[C@@H](OC(CO)CO)[C@H](O)[C@@H](O)[C@H]1O : 64

Item: OCC(CO)O[C@@H]1O[C@H](CO)[C@H](O)[C@H](O)[C@H]1O | inhibition: 50

Looking up CC(C)CC(=O)OC[C@H]1O[C@@H](OC(CO)CO)[C@H](O)[C@@H](O)[C@H]1O , I see its inhibition listed as 99

Recorded inhibition (compound O=C(CC1CCCCC1)OC[C@H]1O[C@@H](OC(CO)CO)[C@H](O)[C@@H](O)[C@H]1O ): 52

====

- studySystem: Protein kinase C (PKC) (Homo sapiens) (UniProt O94806+P41743+P17252+P05129+Q05655+P05771+Q05513+Q02156+P24723+Q15139+Q04759)
- runDescription: Inhibition of PKC activation in PMA-treated human fibroblasts assessed as inhibition of translocation to plasma membrane at 0.2 uM pretreated for 1 hr followed by 15 mins challenged with PMA by Western blot/densitometric analysis
readout: inhibition (%)
I only need the number, in %, no unit after it.

Lab note: CC(C)CC(=O)OC[C@H]1O[C@@H](OC(CO)CO)[C@H](O)[C@@H](O)[C@H]1O gave inhibition of 23

Entry under test: OCC(CO)O[C@@H]1O[C@H](CO)[C@H](O)[C@H](O)[C@H]1O . Its inhibition was 27

Query CCCCCC(=O)OC[C@H]1O[C@@H](OC(CO)CO)[C@H](O)[C@@H](O)[C@H]1O yields inhibition of 35

Form: compound = O=C(CC1CCCCC1)OC[C@H]1O[C@@H](OC(CO)CO)[C@H](O)[C@@H](O)[C@H]1O ; inhibition = 38
